Tested on: MS2 coat protein
Test: apparent KD of MS2 coat protein; higher = weaker reporter binding
Details: Eterna round: R101; input ligand: none
READOUT_LABEL: apparent KD of MS2 coat protein
Answer as a quantity: numeral, then unit.

Problem: Give the reported value of apparent KD of MS2 coat protein for this record: UUACUCAUGUAAGGAUAUGCAGCCGAAACGGCUGCAGAAGGUACUAUAAUACAUGAGGAUCACCCAUGUAAAAUAAAUAAGGUU (puzzle (switch architecture): Same State NG 1)
Result: 44.1 nM

Problem: Name the recorded apparent KD of MS2 coat protein of the item AAAUGCCUGUCGAUGCUCGACAUGAGGAUCACCCAUGUAUAGCAGGAUAUGCAGAACUGACUCGUGCAGAAGGGCUAUACCUAA (puzzle (switch architecture): Exclusion NG 3) in your answer.
Result: 18.7 nM

Problem: Provide only the value of recorded apparent KD of MS2 coat protein for AAAUAAAUUCAAGGAUAUCAGUGGCAAAGCCACUGAGAAGGUGAGGAUCACCCACCUAUGAUCACAGGUGACGAAAGUCACCUG [#SharedSequence ExNG1 - 38] (puzzle (switch architecture): Exclusion NG 1)
Result: 11.3 nM

---

Test system: MS2 coat protein
Test: apparent KD of MS2 coat protein, switch OFF state (with FMN for OFF switches, without FMN for ON switches); designed switch direction (-1 OFF switch, 1 ON switch): -1; higher = weaker reporter binding
Details: FMN input: 0 or 200 uM; Eterna round: R93 (includes R88 designs)
Lab note: anything with apparent KD of MS2 coat protein at or over 30 nM counts as t; the rest go in f.

Problem: Answer whether apparent KD of MS2 coat protein of AAAACUGGAGGAUAUACAUGAGGAUCACCCAUGUGUGGGUAGACUGUGUCGGCGUCAGGUAGAAGGCCACAAAA [Gilly Gone Silly 31 - Jieux - Exclusion 3] is greater than or equal to 30 nM.
Result: t

Problem: Identify whether the reported apparent KD of MS2 coat protein of the following sequence is 30 nM or greater: CGGAGGAAAGGAUAUACACAAUAAAAGAAGUGAUCCUUGAGACAUGAGGAUCACCCAUGUAGAAGGUUCACUGA [Zaza]
Result: f

Problem: Determine whether this sequence has apparent KD of MS2 coat protein no lower than 30 nM: AGAAAACAUGAGGAUCACCCAUGUGAGGAUAUGCAAAUAUAUACGAAAGAUUAUAAAAGCAGAAGGCACAAAAG [Meechl MS2 Ex1]
Result: t

Problem: Could you verify whether the entry AGGAAACAUGAGGAUCACCCAUGUGAGGAUAUACAAAAGAAAAGAAAAGAAAGAAGAAGUAGAAGGUACAAGAA [Djedkare Isesi] shows apparent KD of MS2 coat protein of no less than 30 nM?
Result: f

Problem: Does the reported apparent KD of MS2 coat protein for UCCUGACAUGAGGAUCACCCAUGUCAGGAUAUGCAUCUUAGGAAAAAAAAACUAAGAUGCAGAAGGGACAUGGG [Design 1: Super Stable] fall at or above the 30 nM mark?
Result: t

Problem: # bool: apparent KD of MS2 coat protein of AAAAAACAUGAGGAUCACCCAUGUGAGGAUAUCGGAAAAGGAAAAAAAAAAAAGAAGACGAGAAGGCACACCAA >= 30 nM
Result: f

Problem: Can AGUUGGCGAGGAUAUACAUGAGGAUCACCCAUGUGAGAGUAAGAAGUGAGAAAGAGAAGUAGAAGGCGCUGACA [Ruby 55] be said to have apparent KD of MS2 coat protein at or above 30 nM?
Result: t

Problem: Is apparent KD of MS2 coat protein for CUCAAGUAAGGAUAUCAAAGAAAAGAAGAGAAAGAAAAGAAUGAGAAGGUACAUGAGGAUCACCCAUGUAAGAA [EteRNA is fun!] at or above 30 nM?
Result: f

Problem: Given AAUAAGUGAGGAUAUCCAAAUAGUAGAUAAGAUUCCCUAAAGGAGAAGGCACAUGAGGAUCACCCAUGUAAAUA [JR_Exc004_Sub006] , state whether its apparent KD of MS2 coat protein is at least 30 nM.
Result: t

Problem: Could you please find out whether GAAAAGUCAGGAUAUACAGAUAAAAAAACGAAAAAAAAUCUGUAGAAGGGACAUGAGGAUCACCCAUGUAAAAG [Mat - Exclusion 4 - Mayanna - D101] has apparent KD of MS2 coat protein that meets 30 nM or exceeds it?
Result: t

Problem: Has GAAAAACAUGAGGAUCACCCAUGUGAGGAUAUACGAAAGUAGAAGGCACUAAAAGAAAAGAGAAGGAGAAAAGA [Meechl Ex1 R2 m2] a recorded apparent KD of MS2 coat protein greater than or equal to 30 nM?
Result: t

Problem: Does apparent KD of MS2 coat protein meet or surpass 30 nM for GACAUGCUAGGAUAUACAGGACAAAUUGGGCAUCCGCAUGGACAUGAGGAUCACCCAUGUAGAAGGAGUAGAAA [Inonmatixe] ?
Result: t

Problem: For this sequence, is measured apparent KD of MS2 coat protein 30 nM or higher? AAGAAGUGAGGAUAUCGAAGACUGUCGAAAAGACAGUCGAACGAGAAGGCACAUGAGGAUCACCCAUGUGGGAG [Mat - Exaclusion 4 - Eli mod - D71]
Result: t

Problem: Could you verify whether the entry GAAACUAGAGGAUAUACGAACAUGUCAAAAGACGUGAAGGGACAUGAGGAUCACCCAUGUAGAAGGCUAGAAAG [Mat - Exclusion 2 - JL mod - D100] shows apparent KD of MS2 coat protein of no less than 30 nM?
Result: t

Problem: Could you verify whether the entry AAGAUCAGAGGAUAUACAUAAGGUGAUGAAAACAUCGCCAAACAUGAGGAUCACCCAUGUAGAAGGCUGAUCAA [JL EX2 1] shows apparent KD of MS2 coat protein of no less than 30 nM?
Result: t

Problem: Could you please find out whether AGUUGGCGAGGAUAUACAUGAGGAUCACCCAUGUGAGAGAAAAAAGUGAAAAAGAAAAGUAGAAGGCGCUGACA [73%, Moding Norbert Elias, 3] has apparent KD of MS2 coat protein that meets 30 nM or exceeds it?
Result: t

Problem: Given the entry AAAAAGCAAGGAUAUACAUGAGGAUCACCCAUGUGAAAAAAAACAAUAAGAAGAAAAAGUAGAAGGUGCAAAAA [Ex 3 Tesla 1] , answer whether its apparent KD of MS2 coat protein meets or surpasses 30 nM.
Result: f

Problem: For this sequence, is measured apparent KD of MS2 coat protein 30 nM or higher? AAAAAACAUGAGGAUCACCCAUGUAAGGAUAUGCUAUGGAAAAUAAAAAUAAAACAUAGCAGAAGGUACACCAA [Amethyst 81]
Result: f

Problem: Is reported apparent KD of MS2 coat protein greater than or equal to 30 nM here: AAACCACAUGAGGAUCACCCAUGUUAGGAUAUGCUAUGGAAAUAAAAAAUAAAACAUAGCAGAAGGGACAAAAA [Mat - Exclusion 1 - Eli mod - D35]
Result: f

Problem: Is apparent KD of MS2 coat protein for AAGAAGGUAGGAUAUACUAGGGCAACUAAUGCAAAGAUAGGACAUGAGGAUCACCCAUGUAGAAGGGCCAGAAA [JR_Exc002_Sub403] at or above 30 nM?
Result: t

Problem: Reported apparent KD of MS2 coat protein at or above 30 nM? AGGGAGUGAGGAUAUACGAAAUAAAAAGAAGGAAAAAAAGAGUAGAAGGCACAUGAGGAUCACCCAUGUGAGAA [milkweed 12]
Result: f

Problem: Exam item: decide whether the reported apparent KD of MS2 coat protein for AGAAACCUAGGAUAUACAUGAGGAUCACCCAUGUAAAGAAAGAAGGGAGCCACAAGAAGUAGAAGGAGGAAGAA [JR_Exc003_Sub005] is at least 30 nM.
Result: t

Problem: Please indicate if the recorded apparent KD of MS2 coat protein for AAAAAGAGAGGAUAUACAUGAGGAUCACCCAUGUGAAAGACGAAAAAAAGUCUAAAAUGUAGAAGGCUCAAAAA [65%, Moding Exclusion3-cac2, 13] meets or exceeds 30 nM.
Result: t

Problem: Entry ACCUGACAUGAGGAUCACCCAUGUCAGGAUAUGUACAUCAGGAAAAAAAAACUGAUGUACAGAAGGGACAAGGG [Design 6: Super Stable - A-U mutation 2] : is its apparent KD of MS2 coat protein no less than 30 nM?
Result: f

Problem: apparent KD of MS2 coat protein >= 30 nM for AAUAAGUCAGGAUAUACUAAAGAAAUGAAAAGAAAUAAAGAACAUGAGGAUCACCCAUGUAGAAGGGACAAUAA [Anati Djedkare] ?
Result: t
